Test system: Staphylococcus aureus
Test: Antibacterial activity against log-phase methicillin-resistant Staphylococcus aureus ATCC 33591 assessed as growth inhibition after 24 hrs by broth microdilution method
Type: functional
Conditions: ATCC 33591, 24 h
I'd appreciate it if you could supply MIC90 values for the items below.

Fill in: MIC90 of COc1cc2cc(-c3cccc(-c4ccccc4)c3)nc(C)c2cc1OC is ___
> 64 µg/mL

Fill in: MIC90 of COc1ccc2cc3[n+](cc2c1OC)CCc1cc2c(cc1-3)OCO2 is ___
> 64 µg/mL

Fill in: MIC90 of COc1cc2cc(-c3cccc(-c4ccc(C(C)(C)C)cc4)c3)nc(C)c2cc1OC is ___
> 64 µg/mL
